assayed_system: Cyclin-dependent kinase 4/cyclin D1 (Homo sapiens, UniProt P11802)
Sequence (P11802 whole entry): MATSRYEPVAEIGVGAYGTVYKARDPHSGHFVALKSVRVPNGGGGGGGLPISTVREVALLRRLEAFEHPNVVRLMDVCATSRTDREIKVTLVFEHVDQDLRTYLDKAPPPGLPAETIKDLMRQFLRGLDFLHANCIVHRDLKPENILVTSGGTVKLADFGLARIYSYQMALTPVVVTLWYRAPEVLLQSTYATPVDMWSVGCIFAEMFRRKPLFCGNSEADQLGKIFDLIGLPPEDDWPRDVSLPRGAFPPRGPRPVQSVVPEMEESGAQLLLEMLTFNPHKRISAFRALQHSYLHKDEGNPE
Sequence (P24385 whole entry, further chain): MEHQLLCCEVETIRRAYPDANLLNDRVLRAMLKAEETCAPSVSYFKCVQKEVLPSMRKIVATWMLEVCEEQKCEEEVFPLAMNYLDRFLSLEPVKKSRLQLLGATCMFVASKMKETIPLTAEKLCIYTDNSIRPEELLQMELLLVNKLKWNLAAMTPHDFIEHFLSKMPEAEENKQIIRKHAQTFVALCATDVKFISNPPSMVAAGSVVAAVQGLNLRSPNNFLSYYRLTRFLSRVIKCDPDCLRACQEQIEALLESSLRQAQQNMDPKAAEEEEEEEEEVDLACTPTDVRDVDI
protocol_text: Inhibition of human CDK4/Cyclin D1 using RB protein as substrate preincubated for 20 mins followed by [gamma-33P]-ATP addition measure after 120 mins by filter binding method
observable: IC50 (nM)
Numbers only, in nM.

A selection of reference data follows.
CN1CCN(Cc2ccc(NC(=O)c3n[nH]cc3Nc3ncnc4occc34)cc2)CC1; 5.67
O=C(Nc1ccc(CN2CCOCC2)cc1)c1n[nH]cc1Nc1ncnc2sccc12; 2.4

Below are some compounds; for each one, tell me its IC50.
1. CN1CCN(Cc2ccc(NC(=O)c3n[nH]cc3Nc3ncnc4ccsc34)cc2)CC1
2. CN1CCN(Cc2ccc(NC(=O)c3n[nH]cc3Nc3ncnc4[nH]ccc34)cc2)CC1

1. 3.1
2. 0.85
